Sourced from ChEMBL document CHEMBL1135649

Please go through the items and note down their logP.
- Assay: Partition coefficient (logP)
- Format: physicochemical
- Particulars: octanol/water
Lab note: jot the number down without any unit.

## Input Which logP is reported for this compound? Cc1cccc2c1OP(=O)(OC[C@H]1O[C@@H](n3cc(/C=C/Br)c(=O)[nH]c3=O)C[C@@H]1O)OC2 (some centres undefined)
## Output 1.9

## Input Field entry: Cc1cccc2c1OP(=O)(OC[C@H]1O[C@@H](n3cc(/C=C/Br)c(=O)[nH]c3=O)C[C@@H]1OC(=O)[C@H](N)CC(C)C)OC2 (some centres undefined)
## Output 0.4

## Input Field entry: COc1ccc2c(c1)COP(=O)(OC[C@H]1O[C@@H](n3cc(/C=C/Br)c(=O)[nH]c3=O)C[C@@H]1O)O2 (some centres undefined)
## Output 1.6

## Input Field entry: Cc1cccc2c1OP(=O)(OC[C@H]1O[C@@H](n3cc(/C=C/Br)c(=O)[nH]c3=O)C[C@@H]1OC(=O)CC(C)C)OC2 (some centres undefined)
## Output 2.4

====

- Assay: Selectivity index as the ratio of CC50 value to that of EC50 value.
- Type: functional
Assay metric: SI

## Input Which SI is reported for this compound? CC(C)(C)c1cccc2c1OP(=O)(OC[C@H]1O[C@@H](n3cc(/C=C/Br)c(=O)[nH]c3=O)C[C@@H]1O)OC2 (stereo partly specified)
## Output 2.5

## Input Field entry: O=c1[nH]c(=O)n([C@H]2C[C@H](O)[C@@H](COP3(=O)OCc4cc(Cl)ccc4O3)O2)cc1/C=C/Br (stereo partly specified)
## Output 3.1

## Input Field entry: COc1ccc2c(c1)COP(=O)(OC[C@H]1O[C@@H](n3cc(/C=C/Br)c(=O)[nH]c3=O)C[C@@H]1O)O2 (stereo partly specified)
## Output 41

## Input Field entry: O=c1[nH]c(=O)n([C@H]2C[C@H](O)[C@@H](COP3(=O)OCc4ccccc4O3)O2)cc1/C=C/Br (stereo partly specified)
## Output 7.5

## Input Field entry: Cc1cccc2c1OP(=O)(OC[C@H]1O[C@@H](n3cc(/C=C/Br)c(=O)[nH]c3=O)C[C@@H]1O)OC2 (stereo partly specified)
## Output 30

## Input Field entry: Cc1cccc2c1OP(=O)(OC[C@H]1O[C@@H](n3cc(/C=C/Br)c(=O)[nH]c3=O)C[C@@H]1OC(=O)[C@@H](N)C(C)C)OC2 (stereo partly specified)
## Output 0.6

====

- Assay: Partition coefficient (logP)
- Type: physicochemical
- Particulars: octanol/water
Assay metric: logP
Lab note: jot the number down without any unit.

## Input Which logP is reported for this molecule? CCC(C)[C@@H](N)C(=O)O[C@H]1C[C@H](n2cc(/C=C/Br)c(=O)[nH]c2=O)O[C@@H]1COP1(=O)OCc2cccc(C)c2O1 (some centres undefined)
## Output -0.02

## Input Field entry: O=c1[nH]c(=O)n([C@H]2C[C@H](O)[C@@H](COP3(=O)OCc4cc(Cl)ccc4O3)O2)cc1/C=C/Br (some centres undefined)
## Output 1.8

## Input Field entry: O=c1[nH]c(=O)n([C@H]2C[C@H](O)[C@@H](COP3(=O)OCc4ccccc4O3)O2)cc1/C=C/Br (some centres undefined)
## Output 1.5

## Input Field entry: CCCCCCCCCCC(=O)O[C@H]1C[C@H](n2cc(/C=C/Br)c(=O)[nH]c2=O)O[C@@H]1COP1(=O)OCc2cccc(C)c2O1 (some centres undefined)
## Output 2.8
